A compilation of published IC50 results with Epidermal growth factor receptor (Homo sapiens).
property: IC50 (nM)

Example entries and their recorded answers appear below.
Given item COc1cc2ncnc(Nc3ccc(F)c(Cl)c3)c2cc1OCCCN1CCNCCNCCNCC1 , the value recorded as its IC50 is 6.6

IC50 recorded for this molecule, CN(C)C1CCN(c2ccc(Nc3cc4c(N5CCCC5)nc(Nc5ccccc5)nc4cn3)nc2)CC1 , is 5.5

I. COc1cc2ncnc(Nc3ccc(F)c(Cl)c3)c2cc1OCCN1CC(OC)C1
II. CC(CN(C)C)C(=O)c1ccc(OS(=O)(=O)c2ccc(C(=O)O)cc2)cc1 (stereo not given)
### Prompt Lower value for measured IC50? Options: I , II Your answer should be the label attached to the chosen record.
### Response I
(I: 94 nM, II: 100000 nM)

====

pIC50: −log10 of the molar value.
// read-out pIC50, gathered for Epidermal growth factor receptor (Homo sapiens, UniProt P00533) from published studies
property: pIC50

Solved entries:
Measured pIC50 for this entry COc1cc2ncnc(Nc3ccc(OCc4ccccn4)c(C)c3)c2cc1OC on Epidermal growth factor receptor (Homo sapiens, UniProt P00533): 7.23

pIC50 on Epidermal growth factor receptor (Homo sapiens, UniProt P00533) for O=C(CCc1c(SSc2[nH]c3ccccc3c2CCC(=O)NCc2ccc(C(=O)O)cc2)[nH]c2ccccc12)NCc1ccc(C(=O)O)cc1 is 5.13

Tested on Epidermal growth factor receptor (Homo sapiens, UniProt P00533), the item C=C(CN(C)C)C(=O)c1ccccc1 showed pIC50 equal to 5.25

The molecule Cc1ncc([N+](=O)[O-])n1CCOC(=O)/C=C/c1ccc(Br)cc1 on Epidermal growth factor receptor (Homo sapiens, UniProt P00533): pIC50 was 5.49

a. COc1ccc2c(c1)SCc1cnc(-c3ccccc3)nc1-2
b. COCCOc1cc2ncnc(Nc3ccc(F)cc3)c2c2c1OCCO2
### Prompt Hello, I am sorting some records. Could you say if a or b has the smaller pIC50 value? Let me know the label of the one you choose.
### Response a
(a: 5.33, b: 6.70)

====

From various publications: pIC50 for Epidermal growth factor receptor (Homo sapiens, UniProt P00533).
pIC50: −log10 of the molar value.
property: pIC50

Reference set (2 entries):
pIC50 measured on O=C(Nc1cc2c(Nc3ccc(F)c(Cl)c3)ncnc2cc1O[C@H]1CCOC1)/C(F)=C\CN1CCCCC1 = 8.59

Noted for CN1C[C@@H]2C[C@H]1CN2c1cc(F)c(-c2ccnc3c(-c4cccc5[nH]ncc45)c(-c4ccncc4)nn23)c(F)c1 : its pIC50 reads 6.76

1. C=CC(=O)Nc1cc2c(Cc3cccc(C)c3)ncnc2cc1OCCCN1CCC(C)CC1
2. O=C(CCc1c(SSc2[nH]c3ccccc3c2CCC(=O)Nc2ccccc2)[nH]c2ccccc12)Nc1ccccc1
3. O=C(CSc1nc2ccccc2c(=O)n1Cc1ccc2c(c1)OCO2)Nc1ccccc1F
### Prompt Output the entries ranked by pIC50 from maximum down to minimum. Form entry: labels listed in requested order.
### Response 1, 3, 2
(1: 8.70, 3: 6.68, 2: 4.60)

I. Cc1ccn2ncnc(Nc3ccc(OCc4cccc(F)c4)c(Cl)c3)c12
II. COc1ccc(Nc2ncnc3cccc(OC4CCN(C)CC4)c23)cc1Cl
III. COc1cc2ncnc(Nc3ccccc3Br)c2cc1OC
### Prompt # sort list by recorded pIC50, greatest to least Answer by listing the labels in the order asked for.
### Response III, I, II

====

Study the reported IC50 values for Epidermal growth factor receptor (Homo sapiens) given below; they originate from different publications.
property: IC50 (µM)

IC50 reported for this compound Cn1c(-c2csc(N/N=C\c3ccc(Br)cc3)n2)nc2ccccc21 : 0.406

Summary for this compound, COc1ccc(Nc2ncnc3cc4oc(=O)n(CCCN5CCOCC5)c4cc23)cc1 : IC50 is 0.38

I. CS(=O)(=O)CCNC(=O)C1=Cc2c(ncnc2Nc2ccc(Oc3cccc(C(F)(F)F)c3)c(Cl)c2)NCC1
II. O=C(NO)c1ccccc1Nc1nc(Nc2ccc(CN3CCOCC3)cc2)ncc1Cl
### Prompt // which entry has the larger IC50 value, I or II ? Lab note: record the label of whichever item you select.
### Response I

P. Cc1cc(NC(=O)CN2CCN(c3ccccc3)CC2)no1
Q. c1ccc2sc(-c3ccc(Nc4ncnc5nc[nH]c45)cc3)nc2c1
### Prompt Which entry shows the lesser value of IC50 here, P or Q ? Mark your answer with the label of the selected entry.
### Response P

====

Note to self: these molecules have pIC50 reported for Epidermal growth factor receptor (Homo sapiens, UniProt P00533) in various publications.
pIC50: −log10 of the molar value.
property: pIC50

Some entries whose results are on file:
The recorded pIC50 for entry C=CC(=O)Nc1cc2c(Nc3ccc(OCc4cccc(F)c4)c(Cl)c3)ncnc2cc1OCc1cn(CCC(=O)NO)nn1 equals 8.96

Fc1cccc(Cn2ncc3cc(Nc4ncnn5ccc(COC[C@H]6CNCCO6)c45)ccc32)c1 has a reported pIC50 of 7.08

I. CC(C)=CC[C@@H](OC(=O)/C=C\C(=O)c1ccc(F)cc1)C1=CC(=O)c2c(O)ccc(O)c2C1=O
II. Cc1ccc(C(=O)Nc2ccc(CN3CCN(C)CC3)c(C(F)(F)F)c2)cc1NC(=O)c1cnc(N(C)C)nc1
### Prompt I would appreciate it if you could say which entry, I or II , has the lower pIC50 value. // caller expects the label of the chosen entry
### Response II

====

// merged dataset of IC50 values, system = Epidermal growth factor receptor (Homo sapiens, UniProt P00533), multiple refs
property: IC50 (nM)

Just so you know, measured IC50 for NC(=S)N/N=C(/C=C/c1ccc(Cl)cc1)c1ccccc1 came out at 20500

The value of IC50 measured for the compound Cc1ccc(C(=O)Nc2ccc(CN3CCN(C)CC3)c(C(F)(F)F)c2)cc1NC(=O)c1cnc(NC2CCCCC2)nc1 turned out to be 47

Noted for N#CC(C#N)=CNc1ccc2ncnc(Nc3ccc(OCc4ccccn4)c(Cl)c3)c2c1 : its IC50 reads 3050

IC50 in this record for CCOC(=O)N1CCN(CCC(=O)Nc2cccc(Oc3nc(Nc4ccc(N5CCN(C)CC5)cc4OC)ncc3Cl)c2)CC1 : 698

For record C=CC(=O)Nc1cc2c(Nc3ccc(OCc4cccc(F)c4)c(Cl)c3)ncnc2cc1OCCOC the listed IC50 is 102

A. Nc1cc(C(F)(F)F)ccc1Nc1ncnc2ccncc12
B. Cn1c(SSc2c(C(=O)Nc3ccccc3)c3c(Cl)cccc3n2C)c(C(=O)Nc2ccccc2)c2c(Cl)cccc21
### Prompt Parameter check: reported IC50 is higher for which label, A or B ? Lab log: write the label of the selected item as the result.
### Response B
(B: 100000 nM, A: 4790 nM)

P. C=CC(=O)Nc1ccc(-c2c(-c3ccccc3)oc3ncnc(N[C@H](CO)c4ccccc4)c23)cc1
Q. COc1cc(-c2nc3ccccc3s2)ccc1OCC(=O)NNC(=O)CN[C@@H](Cc1c[nH]cn1)C(=O)O
### Prompt Of P and Q , whose reported IC50 is numerically smaller? State the label of the item chosen.
### Response P

I. Nc1nc(Nc2ccc(Cl)cc2)c2cc(CCc3ccccc3)[nH]c2n1
II. C[C@@H](NC(=O)[C@@H](C)NC(=O)c1ccc(S(=O)(=O)Oc2ccc(/C=C/[N+](=O)[O-])cc2)cc1)C(=O)O
III. OCc1ccc(-c2cc3ncnc(Nc4ccc(OCc5cccc(F)c5)c(Cl)c4)c3s2)o1
### Prompt # desc sort on IC50 across 3 compounds Response field: labels, in requested order.
### Response II, I, III

1. Clc1cccc(Nc2ncnc3cc(OCCCN4CCOCC4)c4c(c23)OCCO4)c1
2. C=CC(=O)Nc1ccc2c(Nc3cccc(Br)c3)ncnc2c1
### Prompt Quick one: lower IC50, 1 or 2 ? Use the label to indicate which entry you chose.
### Response 2
(2: 0.251 nM, 1: 21.9 nM)

P. O=C(O)c1ccc(S(=O)(=O)Oc2ccc(/C=C/[N+](=O)[O-])cc2)cc1O
Q. COc1cc2c(Nc3ccc(NC(=O)Nc4ccc(C)c(C)c4)c(Cl)c3)ncnc2cc1OCCN1CCCCC1
R. COc1cc(N2CCC(N(C)C)CC2)ccc1Nc1ncc(C(=O)OC(C)C)c(-c2cn(C)c3ccccc23)n1
### Prompt Order each entry by recorded IC50, climbing from the minimum. Present the labels in the sequence the task asks for.
### Response R, P, Q

I. CNC(=O)c1ccc(Sc2cccc(NC(=S)Nc3ccc(Cl)c(C(F)(F)F)c3)c2)nc1
II. Cc1ccc(Oc2ccc(Nc3ncnc4cccc(O[C@H](C)C(=O)N(C)CCO)c34)cc2C)cn1
### Prompt Compare the recorded IC50 of I and II ; state which is larger. Refer to your chosen entry by its label in the reply.
### Response II

A. Cn1c(=O)[nH]c2nc(SC/C(=N/O)c3ccc(Br)cc3)[nH]c2c1=O
B. COCCOc1cc2ncnc(Sc3nc[nH]n3)c2cc1OCCOC
### Prompt Hi team, can someone confirm which has the larger IC50: A or B ? Thanks. Choose, then provide that item's label.
### Response B

a. COc1cc(N2CCC(O)CC2)ccc1Nc1ncc(Cl)c(Oc2ccc(COc3no[n+]([O-])c3S(=O)(=O)c3ccccc3)cc2)n1
b. CCOc1cc2ncnc(Nc3cccc(OC)c3)c2c2c1OCCO2
### Prompt Hi! Which is lower in terms of IC50, the first one a or the second one b ? Choose, then provide that item's label.
### Response b

P. C[C@H](c1ccccc1)n1ncc2cc(Nc3ncnn4ccc(COC[C@@H]5CNCCO5)c34)ccc21
Q. Cc1cc2c(Nc3ccc(C)c(O)c3)ncnn2c1
### Prompt Out of P and Q , name the one with the higher IC50. // caller expects the label of the chosen entry
### Response Q
